target-desc: Inhibitor of nuclear factor kappa-B kinase subunit beta (Homo sapiens, UniProt O14920)
Sequence (O14920 whole entry): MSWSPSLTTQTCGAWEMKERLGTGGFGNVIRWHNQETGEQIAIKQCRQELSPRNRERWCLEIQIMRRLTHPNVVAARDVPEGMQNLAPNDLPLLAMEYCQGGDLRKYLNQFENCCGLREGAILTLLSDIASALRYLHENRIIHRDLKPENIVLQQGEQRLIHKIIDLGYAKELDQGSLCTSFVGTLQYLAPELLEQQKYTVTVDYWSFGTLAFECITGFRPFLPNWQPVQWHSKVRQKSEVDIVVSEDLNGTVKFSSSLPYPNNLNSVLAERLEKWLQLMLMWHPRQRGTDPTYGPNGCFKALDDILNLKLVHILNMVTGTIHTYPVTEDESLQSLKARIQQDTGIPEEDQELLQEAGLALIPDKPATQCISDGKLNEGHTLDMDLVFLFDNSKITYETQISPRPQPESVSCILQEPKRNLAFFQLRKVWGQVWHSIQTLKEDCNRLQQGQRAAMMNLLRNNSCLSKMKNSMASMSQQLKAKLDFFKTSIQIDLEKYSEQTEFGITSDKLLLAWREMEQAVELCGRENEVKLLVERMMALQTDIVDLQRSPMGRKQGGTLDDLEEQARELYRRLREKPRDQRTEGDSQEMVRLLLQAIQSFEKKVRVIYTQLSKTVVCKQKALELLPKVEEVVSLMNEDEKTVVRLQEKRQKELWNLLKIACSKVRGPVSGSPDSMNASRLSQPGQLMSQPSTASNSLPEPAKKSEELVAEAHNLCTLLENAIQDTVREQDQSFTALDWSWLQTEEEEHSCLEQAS
measurement-description: Inhibition of IKK-beta using TMB substrate after 15 mins by spectrophotometer analysis
Give pIC50 for every item shown.
Numbers only, as −log10 of the molar value.

Use the examples below as a reference point.
>  <cpd-smiles>
CC(C)=CC[C@@]12OC(C)(C)[C@@H]3C[C@@H](C=C4C(=O)C=C(c5ccccc5)O[C@]431)C2=O

>  <observable>
pIC50

>  <test-value>
4.38

$$$$
>  <cpd-smiles>
CC(C)=CCC[C@]1(C)C=Cc2c(O)c3c(c(CC=C(C)C)c2O1)O[C@]12C(=C[C@@H]4C[C@H]1C(C)(C)O[C@@]2(C/C=C(/C)C(=O)O)C4=O)C3=O

>  <observable>
pIC50

>  <test-value>
5.51

$$$$
>  <cpd-smiles>
CC(C)=CCc1cc(C2=CC(=O)C3=C[C@@H]4C[C@H]5C(C)(C)O[C@@](CC=C(C)C)(C4=O)[C@@]35O2)ccc1O

>  <observable>
pIC50

>  <test-value>
4.60

$$$$
>  <cpd-smiles>
CC(C)=CC[C@@]12OC(C)(C)[C@@H]3C[C@@H](C=C4C(=O)c5ccccc5O[C@]431)C2=O

>  <observable>
pIC50

>  <test-value>
4.62

$$$$
>  <cpd-smiles>
CC(C)=CCc1c(O)cc(O)c2c(=O)c3ccccc3oc12

>  <observable>
pIC50

>  <test-value>
4.88

$$$$

For every item in the list below, what is its measured pIC50?
1. CC(C)=CC[C@@]12OC(C)(C)[C@@H]3C[C@@H](C=C4C(=O)c5c(O)cccc5O[C@]431)C2=O
2. CC(C)=CCc1c(O)cc(O)c2c1O[C@]13C(=C[C@@H]4C[C@H]1C(C)(C)O[C@@]3(CC=C(C)C)C4=O)C2=O

Response given:
5.09
5.18
